Test: yeast display, Sf9 membrane polyspecificity reagent, FACS + sequencing; frameworks hold sequencing errors
metric: polyreactivity (PSR sort gate)

See these solved cases before continuing.
# sequence-string, polyreactivity (PSR sort gate)
rows = [
    ("QVQLVESGGGLVQAGGSLSLSCDASGSIIQGYAMGWYRQAPGKERELVAAISWSGTSTYYADSVKGRFTISRDNAKNTVYLQMNSLKPEDTEVYYCATDYYYYTAEYEYWGQGTQVTVSS", "high polyreactivity"),
    ("QVQLVESGGGLVQAGGSLRLSCAASGRTFRANAMGWYRQAPGKERELVAAISKRGGNTYYADSVKGRFTISRDNAKYTVYLQMNSLKPEDTAVYYCAAHFIGRDYDYWGQGTQVTVSS", "high polyreactivity"),
    ("QVQLVESGGGLVQAGGSLRLSCAASGITFVWNAMGWYRQAPGKERELVATISRGGVRTYYADSVKGRFTISRDNAKNTVYLQMNSLKPEDTAVYYCNVDETGVLVAYSFDYWGQGTQVTVSS", "low polyreactivity"),
    ("QVQLVESGGGLVQAGGSLRLSCAASGSTFVNNAMGWYIQAPGKERELVAAIRSSDGRTYYADSVKGRFTISRDNAKNTVYLQMNSLKPEDTAVYYCATAVGTKYRTRIFEYYYWGQGTQVTVSS", "high polyreactivity"),
]

Asked: Item under review: QVQLVESGGGLVQAGGSLRLSCAASGFILIQYAMGWYRQAPGKERELVAAITWSDTSTNYADSVKGRFTISRDNAKNTVYLQMNSLKPEDTAVYYCAAYPVRYYNQYDYWGQGTQVTVSS . Reported polyreactivity (PSR sort gate)?
Given back: low polyreactivity

Asked: Can you handle QVQLVESGGGLVQAGGSLRLSCAASGRTFTRYAMGWYRQAPGPERELVAASRWSGTRTYYAVSVKGRITISRDNAKNTVDLQMNSLTPEDTAVYYCAARDRVYPDYGYWGQGTQVTVSS next?
Given back: high polyreactivity

----------
Assay: yeast display, Sf9 membrane polyspecificity reagent, FACS + sequencing; frameworks hold sequencing errors
metric: polyreactivity (PSR sort gate)

See these solved cases before continuing.
# sequence-string, metric, observed-measurement
rows = [
    ("QVQLVESGGGLVQAGGSLRLSCAASGSILDYYVMGWYRQAPGKERELVAAIRGGGSTYYADSVKGRFTISRDNEKNTVYLQMNRMKREDTAVNYCAAAVYGSYTTYGYFEHYFWGQGTQVTVSS", "polyreactivity (PSR sort gate)", "low polyreactivity"),
    ("QVQLVESGGGLVQAGGSLRLSCAASGFTFNYNTMGWYRPAPGKERELVARISRSGGRTYYADSVKGRFTISRDNAKNTVYLQMNSLKPEDTAVYYCNTDYYGVRHRYDYWGQGTQVTVSS", "polyreactivity (PSR sort gate)", "high polyreactivity"),
    ("QVQLVESGGGLVQAGGSLRLSCAASGGTIFAYAMGWYIQAPRERELVPAISWSGDSTYYADSLKGRFTISRDNAKNTVYLQMNSLKPEETAVYYCAADYGFEFYYWGQGTQVTVAS", "polyreactivity (PSR sort gate)", "high polyreactivity"),
    ("QVQLVESGGGLVQAGGSLRLTCAASGFTFSEYAMGWYRQAPGKEMEVVAAISWRGGSTYYADSVKGRFTISRDNAKNTVYLQMNSLKPEDTAVYYCAADSSGVYASWYKMDYWGKGTQVTVSS", "polyreactivity (PSR sort gate)", "high polyreactivity"),
    ("QVQLVESGGGIVQAGGSLRLSCAASGSTFFSNTMGWYRQAPGKERELVAAITSRGGRTYYADSVKGRFTISRDNAKNTVYLQMNSLKPEDSAVYYCADRFVLHGVYLKFYWGQGTQVTVSS", "polyreactivity (PSR sort gate)", "high polyreactivity"),
]

Asked: Item under review: QVQLVESGGGLVQAGGSLRLSSAASGSIFITYAMGWYRQAPGKERELVAAIRDSGDRTYYADSVKGRFTISRDNAKNTVYLQMNSLKPEDTAVYYCNARWQEPLKYDYWGQGTQVTVSS . Reported polyreactivity (PSR sort gate)?
Given back: low polyreactivity

Asked: Can you handle KVQLVESGSGLVQAGGSHSISCAASGGTIACYVMGWYRPAPGKEREFVATISWSGTSTYYADSVKGRFTISRDNAKNTVDLLMYSLKPEDTAVFYCNKPGSSWPDFYSYNYWGLGTQVTVSS next?
Given back: low polyreactivity

Asked: Can you handle QVQLVESGGGLVQAGGSLRLSCAASGFIFKPYDMGWYRQARGKEREFVAAITYSGGRTYYADSVKGRFTISRDNAKNTVYLHMNSLKPEDTAVYYCAADQYWWYWYDYWGQGTQVTVSS next?
Given back: high polyreactivity

Asked: Can you handle QVQLVESGGGLVQAGGSLRLSCAASGSTFWYAMGWYRQAPGKERELVAAITARGGRTYYADSVKGRFTISRDNAKHTVYLQLISLKPEDTAVYYCARLSYAGGQWIIGKYDYWGQGTQVTVSS next?
Given back: high polyreactivity

Asked: Can you handle QDQLVDSGGRLVQGGGSLRLSCAASGYIFIWYDMGWYRQAPGKERELVAAISGSGGYTYYADSVKGRFTISRDNAKNTVFLQMNSLKPEDTAVYYCAAYVARGNSEVIAMDYWGQGTQVTVSS next?
Given back: low polyreactivity

Asked: Can you handle QVQLVESGGGLVQAGGSLRLSCAASGRTFPVYAMGWYRQAPGKERELVATIRRRDGSTYADSVKGRFTISRDNAKNTVYLQMNSLKPEDTAVYYCNAAYRQATPWYYAWYDYWGQVTQVTVSS next?
Given back: high polyreactivity

----------
Test: yeast display, Sf9 membrane polyspecificity reagent, FACS + sequencing; frameworks hold sequencing errors
metric: polyreactivity (PSR sort gate)

See these solved cases before continuing.
# sequence-string, metric, observed-measurement
data = [
    ("QVQLEESGGGLVQAGGSLRLSCAASGRIFYTYVMGWYRQAPEKERELVAAITGGGSKYYAYSVKGRFTISRDNAKNTVYLQMNSLKPEDTAVSYCAKRSYGDRDERYDSWGQGTQVTVSS", "polyreactivity (PSR sort gate)", "low polyreactivity"),
    ("QVQLVESGGGLVQAGGSLRLSCAASGGTINGNTMGWYRQAPGKERELVAVIDWSGGSTYYADSVKGRFTISRDNAKNTVYLQMNSLKPEDTAVNYCNADSDAQFREPKGMYYWGQGTQVTLSS", "polyreactivity (PSR sort gate)", "low polyreactivity"),
    ("QVQLVESGGGLVQAGGSLRLSCAASGGTSQRYVMGWYRQAPGKERELVAAITSTGSTYYADSVKWRFTISRDNAKNTVYLQMNSLKPEDTAVYYCATGRLRIYKSYYWGQGTQVTVSS", "polyreactivity (PSR sort gate)", "high polyreactivity"),
    ("QVQLVESGGGLVQAGGSLRLSCAASGSIFVWYVMGWYRQAPGKERELVAVISRSGGSTYYADSVKGRFTISRDNAKNTVYLQMNSLKPEDTAVYYCAADSRSYYRDVDYWGQGTQVTVSS", "polyreactivity (PSR sort gate)", "low polyreactivity"),
    ("QVQLVESGGGLVQAGGSLRLSCAASGSTFSNNAMAWYRQAPGKERELVAGINSSGGRTYYADSVKGRFTISRDNAKNTVYLQMISLKPEDTAVYYCAAESRYYYELGYWGQGTQVTVSS", "polyreactivity (PSR sort gate)", "high polyreactivity"),
]

Asked: Item under review: QVQLVESGGGLVQAGGSLRLSCAASGLTFYQYALGWSRQAPGNDREWVAAITRGGTTNYADSVKGRFTISRDNAKNTVYLQMNSLKPEDTAVYYCNKGLVFDGYDYWGQGTQVTVSS . Reported polyreactivity (PSR sort gate)?
Given back: high polyreactivity

Asked: Can you handle QVQLVESGGGLVQAGGSLRLSCAASGRIFGSFAMGWYRQAPGKERELVAAITKRGGRTYYADSVKGRFTISRDNANNTVYLQMNSLKPEDTAVYYCRIASYDYWGQGTQVTVSA next?
Given back: high polyreactivity

Asked: Can you handle QVQLVESGGGLVQAGGSLRLSCAASGFTFGRYAMGWYRQAPGKEREFVAGITWSGGSTSYADSVKGRFTISRDNAKNTVYLQMNSLKREDTAVYYSATRARYTRVHGRRYAYDYWGQGTQVTVSS next?
Given back: high polyreactivity

Asked: Can you handle QVQLVESGGGLVQAGGSLRLSCAASGRTFYRYAMGWYRQAPGKERELVAAITGGGRTYYADSVKGRFTISRDNAKNTVYLQMNSLKPEDTAVYDCAAVVLRRPAYDYWGQGTQVTVSS next?
Given back: low polyreactivity

Asked: Can you handle QVQLVESGGGLVQAGGSLRLSCAASGSNFAGYAMGWYRPAPGKERALGAAISWSGGSTYYADSVKGRFTISRDNAKNTVYLQINSLKPEDTAVYYCNALRYGWKYNYWGQGTQVTVSS next?
Given back: high polyreactivity

Asked: Can you handle QVQLVETGGGLVQAGGSLRLSCAASGSIFRYNAKGWYRQAPGKEREFVAAITRSGGSTYADSVKGRFTISRDNAKNTVSLQLNSLKPEDTAVYYCAATRLSRYEYWGQGTQVTVSS next?
Given back: low polyreactivity

Asked: Can you handle PVQLVESGGGLVQAGGPLRLSCAASGFNITSYVMGWYRPAPGKERELVAAISAGGGSTYYADSVKGRFTISRDNAKNTVYLQMNSLIPDDTAVYYCAADPLYEQIYYAIYHYNDGYDYWGQGTQVTVSS next?
Given back: high polyreactivity

Asked: Can you handle QVQIVESGGGLVQAGGSLRLSCAASGSILYEYAMGWYRQAPGKERELVAAISSGDSTNYADSVKGRFTISRDNAKNTVYLQMNSLNPEDTAVYDCNRDFPRERFTYKFDYWGQGTQVTVSS next?
Given back: low polyreactivity
